B1: library; numbered along this chain (parent)
chain: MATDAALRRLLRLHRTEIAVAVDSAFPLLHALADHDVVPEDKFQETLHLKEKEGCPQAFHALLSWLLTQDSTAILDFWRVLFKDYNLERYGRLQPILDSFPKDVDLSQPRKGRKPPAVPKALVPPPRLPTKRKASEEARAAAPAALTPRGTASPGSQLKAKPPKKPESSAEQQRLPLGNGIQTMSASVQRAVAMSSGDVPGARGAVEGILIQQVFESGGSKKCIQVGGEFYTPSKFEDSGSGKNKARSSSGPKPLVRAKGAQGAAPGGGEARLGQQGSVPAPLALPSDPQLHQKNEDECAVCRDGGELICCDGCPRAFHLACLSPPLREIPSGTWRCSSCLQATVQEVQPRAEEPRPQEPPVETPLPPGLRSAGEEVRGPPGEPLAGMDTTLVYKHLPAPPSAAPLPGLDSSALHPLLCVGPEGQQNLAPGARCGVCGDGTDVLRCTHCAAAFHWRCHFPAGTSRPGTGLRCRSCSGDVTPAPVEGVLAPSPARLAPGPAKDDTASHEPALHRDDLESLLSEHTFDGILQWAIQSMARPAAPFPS

variants of: B1; test: AIRE transcriptional activation functional score (insulin promoter-GFP; nonsense median 0, synonymous median 1) (normalised score); higher = higher AIRE activity (more reporter activation); settings: with insulin promoter-GFP reporter in HEK293
Label N if AIRE transcriptional activation functional score falls below 0.7; label Y in every other case.

Prompt line: Answer whether AIRE transcriptional activation functional score of V362R is greater than or equal to 0.7.
Response line: Y

Prompt line: Kindly determine if AIRE transcriptional activation functional score recorded for L32S is above or exactly 0.7.
Response line: N

Prompt line: Identify whether the reported AIRE transcriptional activation functional score of the following variant is 0.7 or greater: P163H
Response line: N

Prompt line: In plain terms: is recorded AIRE transcriptional activation functional score at least 0.7 for E347M ?
Response line: Y

Prompt line: State whether the measured AIRE transcriptional activation functional score reaches 0.7, counting equality as reaching it, for F318C
Response line: Y

Prompt line: // inclusive: AIRE transcriptional activation functional score at least 0.7? input: E207M
Response line: N

Prompt line: Quick check: does Q290R have AIRE transcriptional activation functional score greater than or equal to 0.7?
Response line: Y

Prompt line: AIRE transcriptional activation functional score >= 0.7 for C340F ?
Response line: Y

Prompt line: I'd appreciate it if you could say whether C223K has AIRE transcriptional activation functional score at least equal to 0.7.
Response line: N

Prompt line: Could you verify whether the entry R471G shows AIRE transcriptional activation functional score of no less than 0.7?
Response line: N

Prompt line: Given D84Q , state whether its AIRE transcriptional activation functional score is at least 0.7.
Response line: N

Prompt line: # bool: AIRE transcriptional activation functional score of D105C >= 0.7
Response line: Y

Prompt line: In plain terms: is recorded AIRE transcriptional activation functional score at least 0.7 for G379A ?
Response line: Y

Prompt line: Quick check: does L210G have AIRE transcriptional activation functional score greater than or equal to 0.7?
Response line: N

Prompt line: For this variant, is measured AIRE transcriptional activation functional score 0.7 or higher? S99F
Response line: N

Prompt line: Entry L67Y : is its AIRE transcriptional activation functional score no less than 0.7?
Response line: N

Prompt line: Answer whether AIRE transcriptional activation functional score of T463I is greater than or equal to 0.7.
Response line: Y

Prompt line: Assess whether reported AIRE transcriptional activation functional score for T3P sits at 0.7 or higher.
Response line: N

Prompt line: State whether the measured AIRE transcriptional activation functional score reaches 0.7, counting equality as reaching it, for R15F
Response line: N

Prompt line: Is the recorded value of AIRE transcriptional activation functional score equal to or greater than 0.7 for this variant? G274L
Response line: Y

Prompt line: Check the entry T480V : does AIRE transcriptional activation functional score equal or exceed 0.7?
Response line: Y

Prompt line: Item L520A with AIRE transcriptional activation functional score of 0.7 or above?
Response line: N

Prompt line: Please tell me: is the variant G208V at or over 0.7 in terms of AIRE transcriptional activation functional score?
Response line: N

Prompt line: Identify whether the reported AIRE transcriptional activation functional score of the following variant is 0.7 or greater: A451Y
Response line: N

Prompt line: Reported AIRE transcriptional activation functional score at or above 0.7? S412H
Response line: Y

Prompt line: In plain terms: is recorded AIRE transcriptional activation functional score at least 0.7 for G150E ?
Response line: Y

Prompt line: Hello, I need to know if T183Y has measured AIRE transcriptional activation functional score not below 0.7. Thanks!
Response line: N

Prompt line: State whether the measured AIRE transcriptional activation functional score reaches 0.7, counting equality as reaching it, for G313M
Response line: N

Prompt line: Identify whether the reported AIRE transcriptional activation functional score of the following variant is 0.7 or greater: T183P
Response line: N

Prompt line: Quick check, AIRE transcriptional activation functional score >= 0.7? D84N
Response line: N

Prompt line: Hi, just wondering whether G382P shows AIRE transcriptional activation functional score of 0.7 or higher.
Response line: Y

Prompt line: Please check the record W335N and state if its AIRE transcriptional activation functional score is at or above 0.7.
Response line: Y

Prompt line: Decide: AIRE transcriptional activation functional score of E137L >= 0.7?
Response line: Y

Prompt line: Test whether the variant L32T records AIRE transcriptional activation functional score of 0.7 or higher.
Response line: N

Prompt line: Dear colleague, could you confirm whether P280K has AIRE transcriptional activation functional score at or above 0.7?
Response line: Y

Prompt line: API: above_or_equal(metric=AIRE transcriptional activation functional score, cutoff=0.7) for item P163N
Response line: Y

Prompt line: Tell me whether AIRE transcriptional activation functional score is at least 0.7 here: K102M
Response line: N

Prompt line: Please tell me: is the variant S250W at or over 0.7 in terms of AIRE transcriptional activation functional score?
Response line: Y

Prompt line: Decide: AIRE transcriptional activation functional score of E137A >= 0.7?
Response line: Y

Prompt line: Please indicate if the recorded AIRE transcriptional activation functional score for V20A meets or exceeds 0.7.
Response line: N

Prompt line: Given G486Y , state whether its AIRE transcriptional activation functional score is at least 0.7.
Response line: Y

Prompt line: Form field: AIRE transcriptional activation functional score at least 0.7? Entry: L409G
Response line: Y

Prompt line: Does AIRE transcriptional activation functional score meet or surpass 0.7 for P405C ?
Response line: Y

Prompt line: Could you tell me if the measured AIRE transcriptional activation functional score of A31T reaches 0.7 or more?
Response line: N

Prompt line: Please check the record C340E and state if its AIRE transcriptional activation functional score is at or above 0.7.
Response line: Y

Prompt line: Hi, just wondering whether E137Q shows AIRE transcriptional activation functional score of 0.7 or higher.
Response line: N
